tested.on: epithelial sodium channel (ENaC) (Homo sapiens, UniProt P37088+P51168+P51170)
Construct: host or cells: primary Human Bronchial Epithelial cells (HBECs), air-liquid interface culture
Sequence (P37088 whole entry): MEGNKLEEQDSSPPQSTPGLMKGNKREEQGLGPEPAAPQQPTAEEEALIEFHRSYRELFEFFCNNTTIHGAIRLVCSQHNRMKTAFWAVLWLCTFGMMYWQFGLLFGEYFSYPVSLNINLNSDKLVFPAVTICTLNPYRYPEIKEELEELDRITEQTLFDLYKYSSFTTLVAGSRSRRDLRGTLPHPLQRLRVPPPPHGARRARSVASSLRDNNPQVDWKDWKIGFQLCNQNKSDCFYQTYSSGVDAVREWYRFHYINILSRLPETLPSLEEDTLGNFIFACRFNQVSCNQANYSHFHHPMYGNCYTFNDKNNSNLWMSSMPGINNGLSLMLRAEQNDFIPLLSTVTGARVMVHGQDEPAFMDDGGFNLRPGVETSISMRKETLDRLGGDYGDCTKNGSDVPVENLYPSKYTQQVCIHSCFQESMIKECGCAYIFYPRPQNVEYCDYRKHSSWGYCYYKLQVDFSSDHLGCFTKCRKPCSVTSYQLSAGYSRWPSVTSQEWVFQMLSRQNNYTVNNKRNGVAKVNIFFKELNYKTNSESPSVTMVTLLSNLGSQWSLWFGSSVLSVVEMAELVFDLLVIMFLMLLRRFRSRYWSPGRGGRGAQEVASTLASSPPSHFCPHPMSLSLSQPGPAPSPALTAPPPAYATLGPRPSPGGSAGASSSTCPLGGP
Sequence (P51168 whole entry): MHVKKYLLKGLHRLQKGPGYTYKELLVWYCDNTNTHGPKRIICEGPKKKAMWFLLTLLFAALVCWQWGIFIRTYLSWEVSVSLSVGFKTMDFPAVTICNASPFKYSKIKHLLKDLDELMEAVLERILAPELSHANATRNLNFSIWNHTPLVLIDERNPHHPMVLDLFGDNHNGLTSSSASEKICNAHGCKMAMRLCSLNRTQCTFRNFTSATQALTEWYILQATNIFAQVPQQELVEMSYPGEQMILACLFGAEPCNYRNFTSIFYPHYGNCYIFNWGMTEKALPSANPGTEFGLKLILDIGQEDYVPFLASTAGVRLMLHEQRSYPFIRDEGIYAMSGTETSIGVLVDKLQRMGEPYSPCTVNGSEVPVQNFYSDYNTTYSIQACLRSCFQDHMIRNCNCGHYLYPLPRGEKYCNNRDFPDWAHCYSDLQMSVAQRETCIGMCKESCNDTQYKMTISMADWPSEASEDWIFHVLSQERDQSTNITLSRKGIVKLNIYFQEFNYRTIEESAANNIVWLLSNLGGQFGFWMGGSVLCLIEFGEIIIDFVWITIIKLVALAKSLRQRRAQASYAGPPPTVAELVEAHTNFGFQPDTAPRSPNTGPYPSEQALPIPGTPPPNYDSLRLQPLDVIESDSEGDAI
Sequence (P51170 whole entry): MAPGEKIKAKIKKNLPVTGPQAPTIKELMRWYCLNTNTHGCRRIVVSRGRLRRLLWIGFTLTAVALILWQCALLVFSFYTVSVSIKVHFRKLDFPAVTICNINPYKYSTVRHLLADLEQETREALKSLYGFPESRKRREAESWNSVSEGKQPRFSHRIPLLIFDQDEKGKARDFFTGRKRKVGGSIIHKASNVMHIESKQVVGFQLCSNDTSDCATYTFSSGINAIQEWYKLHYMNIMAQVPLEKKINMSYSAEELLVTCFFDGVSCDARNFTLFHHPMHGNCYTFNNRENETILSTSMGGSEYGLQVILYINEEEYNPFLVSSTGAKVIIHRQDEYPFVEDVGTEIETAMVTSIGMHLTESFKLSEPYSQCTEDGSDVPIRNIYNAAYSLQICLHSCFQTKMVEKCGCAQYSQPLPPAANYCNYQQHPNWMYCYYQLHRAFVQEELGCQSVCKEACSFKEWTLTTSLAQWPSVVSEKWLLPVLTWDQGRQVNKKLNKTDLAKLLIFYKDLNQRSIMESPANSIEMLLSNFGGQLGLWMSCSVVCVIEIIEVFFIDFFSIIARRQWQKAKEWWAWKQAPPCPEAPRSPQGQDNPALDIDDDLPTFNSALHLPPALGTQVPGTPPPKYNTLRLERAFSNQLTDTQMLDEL
experiment.description: Short circuit current (ISC) measurements in Human Bronchial Epithelial cells, inhibition of amiloride-sensitive ISC
Format: cell-based
details: inhibition of the amiloride-sensitive ISC; Human Bronchial Epithelial cells (HBECs) at air-liquid interface; compound added to apical chamber; read-out: IC50
The label Fulfilled is reserved for IC50 strictly under 20 nM; Not fulfilled covers values equal to or above it.

## Task Is it true that IC50 reported for Cc1ccc(S(=O)(=O)N[C@@H](Cc2ccccc2)C(=O)N2CCC3(CC2)CN/C(=N\C(=O)c2nc(Cl)c(N)nc2N)N3)cc1 is less than 20 nM?
## Result Fulfilled

## Task Is it true that IC50 reported for Cc1nc(-c2ccccc2)ncc1C(=O)N1CCC2(CC1)CN/C(=N\C(=O)c1nc(Cl)c(N)nc1N)N2 is less than 20 nM?
## Result Not fulfilled

## Task Is it true that IC50 reported for CC(C)NC(=O)Nc1ccc(C(=O)N2CCC3(CC2)CN/C(=N\C(=O)c2nc(Cl)c(N)nc2N)N3)cn1 is less than 20 nM?
## Result Not fulfilled

## Task Is it true that IC50 reported for CC(C)(C)OC(=O)c1ccc(C(=O)N2CCC3(CC2)CN/C(=N\C(=O)c2nc(Cl)c(N)nc2N)N3)cc1 is less than 20 nM?
## Result Fulfilled

## Task Is it true that IC50 reported for Nc1nc(N)c(C(=O)/N=C2\NCC3(CCN(C(=O)Cc4csc5ccccc45)CC3)N2)nc1Cl is less than 20 nM?
## Result Not fulfilled

## Task Is it true that IC50 reported for CCOC(=O)C1CCCN(S(=O)(=O)c2cccc(C(=O)N3CCC4(CC3)CN/C(=N\C(=O)c3nc(Cl)c(N)nc3N)N4)c2)C1 (centres unmarked) is less than 20 nM?
## Result Fulfilled

## Task Is it true that IC50 reported for CC(=O)N[C@@H](Cc1ccc(OC(C)C)cc1)C(=O)N1CCC2(CC1)CN/C(=N\C(=O)c1nc(Cl)c(N)nc1N)N2 is less than 20 nM?
## Result Not fulfilled

## Task Is it true that IC50 reported for CC(C)NC(=O)Nc1cccc(C(=O)N2CCC3(CC2)CN/C(=N\C(=O)c2nc(Cl)c(N)nc2N)N3)c1 is less than 20 nM?
## Result Fulfilled

## Task Is it true that IC50 reported for Nc1nc(N)c(C(=O)/N=C2\NCC3(CCN(C(=O)c4cccc(S(=O)(=O)N5CCC(S(=O)(=O)c6ccccc6)C5)c4)CC3)N2)nc1Cl (centres unmarked) is less than 20 nM?
## Result Fulfilled

## Task Is it true that IC50 reported for Cc1oc(-c2ccccc2)nc1COc1ccc(S(=O)(=O)N2CCC3(CC2)CN/C(=N\C(=O)c2nc(Cl)c(N)nc2N)N3)cc1 is less than 20 nM?
## Result Not fulfilled

## Task Is it true that IC50 reported for CC(C)COC1CCN(S(=O)(=O)c2cccc(C(=O)N3CCC4(CC3)CN/C(=N\C(=O)c3nc(Cl)c(N)nc3N)N4)c2)CC1 is less than 20 nM?
## Result Not fulfilled

## Task Is it true that IC50 reported for Cc1ccc(S(=O)(=O)n2ccc(C(=O)N3CCC4(CC3)CN/C(=N\C(=O)c3nc(Cl)c(N)nc3N)N4)c2)cc1 is less than 20 nM?
## Result Fulfilled

## Task Is it true that IC50 reported for Nc1nc(N)c(C(=O)/N=C2\NCC3(CCN(C(=O)Cc4nnc(-c5ccccc5)[nH]4)CC3)N2)nc1Cl is less than 20 nM?
## Result Fulfilled

## Task Is it true that IC50 reported for CC(C)NC(=O)Nc1ccc(C(=O)N2CCC3(CC2)CN/C(=N\C(=O)c2nc(Cl)c(N)nc2N)N3)cc1 is less than 20 nM?
## Result Not fulfilled
